The measured values listed here are drawn from PubChem BioAssay (EPA / NIEHS).

# target.or.test.system: Hepatocyte nuclear factor 6 (Homo sapiens) (UniProt Q9UBC0)
# Sequence (Q9UBC0 whole entry, looked up): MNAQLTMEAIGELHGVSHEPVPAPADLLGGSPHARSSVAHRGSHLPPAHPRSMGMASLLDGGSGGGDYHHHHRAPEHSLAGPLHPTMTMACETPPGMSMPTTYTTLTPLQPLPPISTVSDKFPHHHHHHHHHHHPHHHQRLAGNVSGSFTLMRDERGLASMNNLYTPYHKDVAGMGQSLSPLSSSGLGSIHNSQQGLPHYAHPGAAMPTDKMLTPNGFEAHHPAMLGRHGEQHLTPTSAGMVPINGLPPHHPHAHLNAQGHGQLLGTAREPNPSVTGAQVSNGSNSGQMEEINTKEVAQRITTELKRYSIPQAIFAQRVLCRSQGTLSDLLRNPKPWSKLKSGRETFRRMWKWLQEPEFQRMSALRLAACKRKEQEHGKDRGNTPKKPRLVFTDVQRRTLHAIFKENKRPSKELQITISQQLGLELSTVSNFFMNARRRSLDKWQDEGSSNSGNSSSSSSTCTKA
# measurement.protocol: ATG_HNF6_CIS: Attagene CIS-FACTORIAL HepG2 Assay for human Hepatocyte Nuclear Factor 6 (HNF6) (AID 2282952)
# protocol.conditions: HepG2 Attagene cis-factorial HNF6 reporter transcription; actives raise or lower the signal
Active and inactive are the calls of the source. Rule for the calls: active = hit-call score of the fitted dose curve at least 0.9, where 1 is the maximum; inactive = score below 0.9.
Allowed answers: y for active, n for inactive

Worked cases, answers included:
INSERT INTO results (molecule, label_value) VALUES
  ('CCCCCCCCO', 'n'),
  ('O=C(O)CCN(C1(C(=O)NO)CCCC1)S(=O)(=O)c1ccc(Oc2ccc(F)cc2)cc1', 'n'),
  ('CN(C)c1ccc(Cc2ccc(N(C)C)cc2)cc1', 'n');

Entry `CC(C)CCCCCCOC(=O)c1ccc(C(=O)OCCCCCCC(C)C)c(C(=O)OCCCCCCC(C)C)c1` : call = ?
n

Entry `COc1ccc2sc(C(=O)Nc3nnn[nH]3)c(OC(C)C)c2c1` : call = ?
n

Entry `CC1(C)C(=O)N(Br)C(=O)N1Br` : call = ?
n

Entry O=c1n(CC2CO2)c(=O)n(CC2CO2)c(=O)n1CC1CO1 (configuration not stated) : call = ?
n

Entry `CC[C@H]1OC(=O)[C@H](C)[C@@H](O[C@H]2C[C@@](C)(OC)[C@@H](O)[C@H](C)O2)[C@H](C)[C@@H](O[C@@H]2O[C@H](C)C[C@H](N(C)C)[C@H]2O)[C@](C)(O)C[C@@H](C)C(=O)[C@H](C)[C@@H](O)[C@]1(C)O` : call = ?
n

Entry `CC[C@H]1CC[C@H](NCc2cc3c(cc2OC)[C@H]2C[C@H]2C(=O)N3C)[C@H](c2ccccc2)N1` : call = ?
n

Entry `C=CCCCCCCCCC(=O)O` : call = ?
n

Entry `O=C1CCCCCN1` : call = ?
n

Entry `O=C(NS(=O)(=O)/C=C/c1ccccc1)c1ccc(F)cc1Cl` : call = ?
n

Entry CC(C)=CCCC(C)CCO (configuration not stated) : call = ?
n

Entry `CCCC(=O)OCC` : call = ?
n

Entry `CCCN(C1CCN(C(=O)C2CCNCC2)CC1)[C@@H]1CCc2ccc(OC)cc2C1` : call = ?
n

Entry `CC(=O)OCCC(C)C` : call = ?
n

Entry CNS(=O)(=O)c1cc(C(=O)N2CCC(CCN3C4CCC3CC(n3c(C)nc5ccccc53)C4)(c3cccc(F)c3)CC2)c(Cl)cc1F (configuration not stated) : call = ?
n

Entry `CC(=O)OC[C@H]1O[C@@](COC(C)=O)(O[C@H]2O[C@H](COC(C)=O)[C@@H](OC(C)=O)[C@H](OC(C)=O)[C@H]2OC(C)=O)[C@@H](OC(C)=O)[C@@H]1OC(C)=O` : call = ?
n

Entry `Nc1cccc(N)c1` : call = ?
n
